# Test system: E. coli ESS
# Experimental protocol: MIC against human bacteria in vitro
# Format: cell-based
# Experimental context: Escherichia coli; E. coli ESS; 5% chocolated horse blood agar, 18 hours; read-out: MIC
Answer each item with its documented MIC.
Reply with just the number (in µg/mL).

Task: GET /values?readout=MIC&item= `CSc1cccc(-c2cnc(/C=C(\C)C[C@@H]3OC[C@H](C[C@@H]4O[C@H]4[C@@H](C)[C@H](C)O)[C@@H](O)[C@H]3O)o2)c1`
Output: 64

Task: Entry to check: `C/C(=C\c1ncc(-c2ccc(S(=O)(=O)N(C)C)cc2)o1)C[C@@H]1OC[C@H](C[C@@H]2O[C@H]2[C@@H](C)[C@H](C)O)[C@@H](O)[C@H]1O`
Output: 4

Task: Entry to check: `COc1ccc(-c2cnc(/C=C(\C)C[C@@H]3OC[C@H](C[C@@H]4O[C@H]4[C@@H](C)[C@H](C)O)[C@@H](O)[C@H]3O)o2)cc1`
Output: 2.5

Task: Entry to check: `C/C(=C\c1ncc(Cc2ccccc2)o1)C[C@@H]1OC[C@H](C[C@@H]2O[C@H]2[C@@H](C)[C@H](C)O)[C@@H](O)[C@H]1O`
Output: 16

Task: Entry to check: `C/C(=C\c1ncc(-c2ccc(S(C)(=O)=O)cc2)o1)C[C@@H]1OC[C@H](C[C@@H]2O[C@H]2[C@@H](C)[C@H](C)O)[C@@H](O)[C@H]1O`
Output: 8

Task: Entry to check: C/C(=C\c1ncc(-c2cccc([S+](C)[O-])c2)o1)C[C@@H]1OC[C@H](C[C@@H]2O[C@H]2[C@@H](C)[C@H](C)O)[C@@H](O)[C@H]1O (some centres unmarked)
Output: 4

Task: Entry to check: `C/C(=C\c1ncc(C)o1)C[C@@H]1OC[C@H](C[C@@H]2O[C@H]2[C@@H](C)[C@H](C)O)[C@@H](O)[C@H]1O`
Output: 32

---

# Test system: M. dispar NCTC 10125
# Experimental protocol: MIC against mycoplasma in vitro
# Format: cell-based
# Experimental context: 144 h; M. dispar NCTC 10125; 6 days, 37° C.; read-out: MIC
Recorded metric: MIC

Task: GET /values?readout=MIC&item= `C/C(=C\c1nc(-c2ccccc2)c(-c2ccccc2)o1)C[C@@H]1OC[C@H](C[C@@H]2O[C@H]2[C@@H](C)[C@H](C)O)[C@@H](O)[C@H]1O`
Output: > 10 µg/mL

Task: Entry to check: `C/C(=C\c1nc(C)c(C)o1)C[C@@H]1OC[C@H](C[C@@H]2O[C@H]2[C@@H](C)[C@H](C)O)[C@@H](O)[C@H]1O`
Output: > 10 µg/mL

Task: Entry to check: `C/C(=C\c1nc(C)c(-c2ccccc2)o1)C[C@@H]1OC[C@H](C[C@@H]2O[C@H]2[C@@H](C)[C@H](C)O)[C@@H](O)[C@H]1O`
Output: > 10 µg/mL

---

# Test system: Staph. aureus 152 (pen. sens)
# Experimental protocol: MIC against veterinary bacteria in vitro
# Experimental context: Staphylococcus aureus, 18 h
Recorded metric: MIC (µg/mL)
Reply with just the number (in µg/mL).

Task: GET /values?readout=MIC&item= `C/C(=C\c1ncc(-c2ccc(CO)cc2)o1)C[C@@H]1OC[C@H](C[C@@H]2O[C@H]2[C@@H](C)[C@H](C)O)[C@@H](O)[C@H]1O`
Output: 1.25

Task: Entry to check: `C/C(=C\c1nc(C)c(-c2ccccc2)o1)C[C@@H]1OC[C@H](C[C@@H]2O[C@H]2[C@@H](C)[C@H](C)O)[C@@H](O)[C@H]1O`
Output: 80

Task: Entry to check: `C/C(=C\c1cc(-c2ccccc2)no1)C[C@@H]1OC[C@H](C[C@@H]2O[C@H]2[C@@H](C)[C@H](C)O)[C@@H](O)[C@H]1O`
Output: 10

---

# System: Strep. suis (group D) SPS11
# Experimental protocol: MIC against veterinary bacteria in vitro
# Experimental context: Streptococcus suis, 18 h
Recorded metric: MIC (µg/mL)
Reply with just the number (in µg/mL).

Task: GET /values?readout=MIC&item= C/C(=C\c1ncc(-c2ccc(CO)cc2)o1)C[C@@H]1OC[C@H](C[C@@H]2O[C@H]2[C@@H](C)[C@H](C)O)[C@@H](O)[C@H]1O [Example 13]
Output: 10

Task: Entry to check: COC(=O)CCCCCCCc1cnc(/C=C(\C)C[C@@H]2OC[C@H](C[C@@H]3O[C@H]3[C@@H](C)[C@H](C)O)[C@@H](O)[C@H]2O)o1 [Example 7]
Output: 80

Task: Entry to check: C/C(=C\c1ncc(-c2ccc([N+](=O)[O-])cc2)o1)C[C@@H]1OC[C@H](C[C@@H]2O[C@H]2[C@@H](C)[C@H](C)O)[C@@H](O)[C@H]1O [Example 3]
Output: 2.5

Task: Entry to check: C/C(=C\c1ncc(-c2cccc(S(C)(=O)=O)c2)o1)C[C@@H]1OC[C@H](C[C@@H]2O[C@H]2[C@@H](C)[C@H](C)O)[C@@H](O)[C@H]1O [Example 23]
Output: 10

Task: Entry to check: CSc1ccc(-c2cnc(/C=C(\C)C[C@@H]3OC[C@H](C[C@@H]4O[C@H]4[C@@H](C)[C@H](C)O)[C@@H](O)[C@H]3O)o2)cc1 [Example 9]
Output: 10

Task: Entry to check: COC(=O)c1ccc(-c2cnc(/C=C(\C)C[C@@H]3OC[C@H](C[C@@H]4O[C@H]4[C@@H](C)[C@H](C)O)[C@@H](O)[C@H]3O)o2)cc1 [Example 16]
Output: 20

Task: Entry to check: C/C(=C\c1ncc(CCCCCCCC(=O)O)o1)C[C@@H]1OC[C@H](C[C@@H]2O[C@H]2[C@@H](C)[C@H](C)O)[C@@H](O)[C@H]1O [Example 12]
Output: 20

Task: Entry to check: C/C(=C\c1ncc(-c2cccc([N+](=O)[O-])c2)o1)C[C@@H]1OC[C@H](C[C@@H]2O[C@H]2[C@@H](C)[C@H](C)O)[C@@H](O)[C@H]1O [Example 6]
Output: 10

Task: Entry to check: C/C(=C\c1ncc(-c2ccccc2[N+](=O)[O-])o1)C[C@@H]1OC[C@H](C[C@@H]2O[C@H]2[C@@H](C)[C@H](C)O)[C@@H](O)[C@H]1O [Example 26]
Output: 10

---

Answer each item with its documented MIC.
# Tested on: Strep. suis (group D) SPS11
# Experimental protocol: MIC against veterinary bacteria in vitro
# Experimental context: Streptococcus suis, 18 h

Task: GET /values?readout=MIC&item= `C/C(=C\c1cc(-c2ccccc2)no1)C[C@@H]1OC[C@H](C[C@@H]2O[C@H]2[C@@H](C)[C@H](C)O)[C@@H](O)[C@H]1O`
Output: > 80 µg/mL

Task: Entry to check: `C/C(=C\c1ncc(-c2ccccc2)s1)C[C@@H]1OC[C@H](C[C@@H]2O[C@H]2[C@@H](C)[C@H](C)O)[C@@H](O)[C@H]1O`
Output: > 80 µg/mL

Task: Entry to check: `C/C(=C\c1nc(C)c(-c2ccccc2)o1)C[C@@H]1OC[C@H](C[C@@H]2O[C@H]2[C@@H](C)[C@H](C)O)[C@@H](O)[C@H]1O`
Output: > 80 µg/mL
